Data credit: patent US5332726A

- assay_system: fixed activated platelets (Homo sapiens, UniProt P05106+P08514)
- Sequence (P08514 32-1039): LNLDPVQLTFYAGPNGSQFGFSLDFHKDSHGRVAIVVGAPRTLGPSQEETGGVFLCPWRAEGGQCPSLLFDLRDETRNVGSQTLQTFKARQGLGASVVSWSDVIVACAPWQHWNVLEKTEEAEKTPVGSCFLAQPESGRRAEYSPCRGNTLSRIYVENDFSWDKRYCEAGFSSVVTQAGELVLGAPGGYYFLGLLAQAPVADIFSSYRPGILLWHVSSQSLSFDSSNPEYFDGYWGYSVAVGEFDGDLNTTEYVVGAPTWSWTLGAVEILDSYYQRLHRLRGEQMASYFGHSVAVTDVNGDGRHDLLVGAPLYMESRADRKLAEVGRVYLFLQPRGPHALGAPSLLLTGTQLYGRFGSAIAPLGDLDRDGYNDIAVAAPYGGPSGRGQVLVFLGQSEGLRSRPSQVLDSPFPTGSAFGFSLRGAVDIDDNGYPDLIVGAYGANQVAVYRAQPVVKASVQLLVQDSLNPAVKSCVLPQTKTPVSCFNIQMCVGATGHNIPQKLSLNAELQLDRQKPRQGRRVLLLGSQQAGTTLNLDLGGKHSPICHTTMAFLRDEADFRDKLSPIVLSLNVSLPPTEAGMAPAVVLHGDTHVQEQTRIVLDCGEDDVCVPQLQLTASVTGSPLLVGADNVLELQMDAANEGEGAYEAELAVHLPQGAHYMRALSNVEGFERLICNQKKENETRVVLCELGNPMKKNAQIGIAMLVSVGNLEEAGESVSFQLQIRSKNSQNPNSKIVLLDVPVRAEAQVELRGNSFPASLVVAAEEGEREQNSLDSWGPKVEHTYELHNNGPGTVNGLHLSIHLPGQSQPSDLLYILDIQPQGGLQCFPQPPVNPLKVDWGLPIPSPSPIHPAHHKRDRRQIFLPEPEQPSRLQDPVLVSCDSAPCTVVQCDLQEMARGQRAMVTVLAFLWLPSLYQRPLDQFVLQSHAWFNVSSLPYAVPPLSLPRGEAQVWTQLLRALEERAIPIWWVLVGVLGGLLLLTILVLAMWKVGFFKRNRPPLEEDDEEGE
- Sequence (P05106 27-788): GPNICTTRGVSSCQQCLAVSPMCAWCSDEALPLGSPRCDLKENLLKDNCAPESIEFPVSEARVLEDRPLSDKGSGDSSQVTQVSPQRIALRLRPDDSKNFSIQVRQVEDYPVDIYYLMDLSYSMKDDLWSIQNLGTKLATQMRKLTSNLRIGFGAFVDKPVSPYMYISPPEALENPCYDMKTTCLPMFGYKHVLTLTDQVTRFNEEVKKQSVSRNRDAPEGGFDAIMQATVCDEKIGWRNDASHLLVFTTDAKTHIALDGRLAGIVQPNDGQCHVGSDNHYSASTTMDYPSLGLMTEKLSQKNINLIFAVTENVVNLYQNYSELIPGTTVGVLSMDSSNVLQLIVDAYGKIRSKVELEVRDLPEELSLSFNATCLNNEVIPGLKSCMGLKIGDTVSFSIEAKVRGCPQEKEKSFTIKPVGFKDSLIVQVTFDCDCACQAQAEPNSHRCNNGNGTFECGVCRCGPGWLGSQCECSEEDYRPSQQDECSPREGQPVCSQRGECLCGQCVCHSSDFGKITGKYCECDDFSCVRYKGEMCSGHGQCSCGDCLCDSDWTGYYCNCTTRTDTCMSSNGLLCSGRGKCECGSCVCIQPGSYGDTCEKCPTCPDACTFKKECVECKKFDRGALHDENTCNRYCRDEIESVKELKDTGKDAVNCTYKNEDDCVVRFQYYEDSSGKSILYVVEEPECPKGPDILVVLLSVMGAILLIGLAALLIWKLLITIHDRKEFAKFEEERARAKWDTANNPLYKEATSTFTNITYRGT
- experiment_summary: Platelet Aggregation Assay (fibrinogen-mediated aggregation of fixed-activated platelets)
- Type: cell-based
- condition_description: read-out: Inhibition of Fibrinogen Mediated Platelet Aggregation % inhibition at 25 μM
endpoint_name: inhibition at 25 µM (%)

CC(C)[C@H](NC(=O)[C@H](CC(=O)O)NC(=O)CNC(=O)CCCCCCNC(=N)N)C(=O)O : 56
N=C(N)NCCCCCCCCC(=O)N[C@@H](CC(=O)O)C(=O)NCC(=O)N[C@@H](CCCNC(=N)N)C(=O)O : 85
CCN(CC(=O)N[C@@H](CC(=O)O)C(=O)N[C@@H](Cc1c[nH]c2ccccc12)C(=O)O)C(=O)CCCCCNC(=N)N : 91

a. CN(CC(=O)N[C@@H](CC(=O)O)C(=O)N[C@@H](CCCNC(=N)N)C(=O)O)C(=O)CCCCCNC(=N)N
b. CC(C)[C@H](NC(=O)[C@H](CC(=O)O)NC(=O)CN(C)C(=O)CCCCCCNC(=N)N)C(=O)O
-- ask Would you let me know which has the greater inhibition at 25 µM value, a or b ? Write down the label of the entry you select.
-- reply a
